Experiment: in vitro
Settings: human
Where a SMILES comes first, the peptide text is derived from it. Bridges are numbered along the chain shown (N, C = ends). [ ]: non-standard residue; d: D form. The star is where a group is joined. Biphenylcarbonyl(4'-Bu) = CCCCc1ccc(-c2ccc(C(=O)*)cc2)cc1; Benzoyl(4-hexyl) = CCCCCCc1ccc(C(=O)*)cc1; Hexanoyl(6-Ph) = O=C(CCCCCc1ccccc1)*; dDab = NCC[C@@H](N)C(=O)O; Octanoyl = CCCCCCCC(=O)*; Orn = NCCC[C@H](N)C(=O)O; Dab = NCC[C@H](N)C(=O)O

| compound | CC50 at 24 h |
| --- | --- |
| CN[C@H](CC(C)C)C(=O)N[C@H]1C(=O)N[C@@H](CC(N)=O)C(=O)N[C@H]2C(=O)N[C@H]3C(=O)N[C@H](C(=O)N[C@H](C(=O)O)c4cc(O)cc(O)c4-c4cc3ccc4O)[C@H](O)c3ccc(c(Cl)c3)Oc3cc2cc(c3O[C@@H]2O[C@H](CO)[C@@H](O)[C@H](O)[C@H]2O[C@H]2C[C@](C)(N)[C@H](O)[C@H](C)O2)Oc2ccc(cc2Cl)[C@H]1O [Vanc, vancomycin, reference compound] | > 300 µM |
| CCCCCCCC(=O)N[C@H](C(=O)N[C@@H](CCN)C(=O)N[C@H]1CCCNC(=O)[C@H]([C@@H](C)O)NC(=O)[C@H](CCN)NC(=O)[C@H](CCN)NC(=O)[C@H](CC(C)C)NC(=O)[C@@H](Cc2ccccc2)NC(=O)[C@H](CCN)NC1=O)[C@@H](C)O [Compound 17] (Octanoyl-T[Dab][Orn][Dab][dF]L[Dab][Dab]T; lactam 3-C) | 88 µM |
| CCCCCCc1ccc(C(=O)N[C@H](C(=O)N[C@@H](CCN)C(=O)N[C@H]2CCNC(=O)[C@H]([C@@H](C)O)NC(=O)[C@H](CCN)NC(=O)[C@H](CCN)NC(=O)[C@H](CC(C)C)NC(=O)[C@@H](Cc3ccccc3)NC(=O)[C@H](CCN)NC2=O)[C@@H](C)O)cc1 [Compound 12] ({Benzoyl(4-hexyl)}-T[Dab][Dab][Dab][dF]L[Dab][Dab]T; lactam 3-C) | 46 µM |
| CCCCc1ccc(-c2ccc(C(=O)N[C@H](C(=O)N[C@H](CCN)C(=O)N[C@H]3CCNC(=O)[C@H]([C@@H](C)O)NC(=O)[C@H](CCN)NC(=O)[C@H](CCN)NC(=O)[C@H](CC(C)C)NC(=O)[C@@H](Cc4ccccc4)NC(=O)[C@H](CCN)NC3=O)[C@@H](C)O)cc2)cc1 [Compound 23] ({Biphenylcarbonyl(4'-Bu)}-T[dDab][Dab][Dab][dF]L[Dab][Dab]T; lactam 3-C) | 29 µM |
| CC(C)C[C@@H]1NC(=O)[C@@H](Cc2ccccc2)NC(=O)[C@H](CCN)NC(=O)[C@@H](NC(=O)[C@H](CCN)NC(=O)[C@@H](NC(=O)CCCCCc2ccccc2)[C@@H](C)O)CCNC(=O)[C@H]([C@@H](C)O)NC(=O)[C@H](CCN)NC(=O)[C@H](CCN)NC1=O [Compound 13] ({Hexanoyl(6-Ph)}-T[Dab][Dab][Dab][dF]L[Dab][Dab]T; lactam 3-C) | 189 µM |
| CCCCCCCC(=O)N[C@@H](Cc1ccc(O)cc1)C(=O)N[C@H](CCN)C(=O)N[C@H]1CCNC(=O)[C@H]([C@@H](C)O)NC(=O)[C@H](CCN)NC(=O)[C@H](CCN)NC(=O)[C@H](CC(C)C)NC(=O)[C@@H](Cc2ccccc2)NC(=O)[C@H](CCN)NC1=O [Compound 29] (Octanoyl-Y[dDab][Dab][Dab][dF]L[Dab][Dab]T; lactam 3-C) | > 300 µM |
